B1: OAS1 (parent)
chain: TPAKSLDKFIEDYLLPDTCFRMQI

Variants of: B1
Test: protein stability index of a GFP-peptide fusion (GPS, HEK-293T) (PSI 1-6); higher = more stable;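 note: lentivirally expressed fusions sorted by FACS into six bins by GFP to DsRed ratio, PSI derived from sequencing read proportions per bin multiplied by bin number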
Settings: c terminus: a fixed tail appended
Please respond with reported protein stability index for every item in the list.
Answers are plain numbers.

The cases that follow already have their protein stability index on record.
| seq-text | measure | measured-value |
| --- | --- | --- |
| TPAKSLDKFIEDWLLPDTCFRMQI [Y13W] | protein stability index | 3.04 |
| TPAKSLDKFIEDYLLPDTCFRNQI [M22N] | protein stability index | 1.99 |
| TPAKSYDKFIEDYLLPDTCFRMQI [L6Y] | protein stability index | 3 |

# batch size: 2; output protein stability index per entry
1. TPAKSLDKFIEDYLQPDTCFRMQI [L15Q]
2. TPAKSLDKFIGDYLLPDTCFRMQI [E11G]

Reply:
1. 3.04
2. 3
